# Tested on: HCV genotype 1b replicon
# ASSAY_SUMMARY: HCV replicon assay (HCV 1b_Huh-Luc/Neo-ET cell line, luciferase readout)
# Type: cell-based
# ASSAY_CONTEXT: Hepatitis C virus; bicistronic genotype 1b replicon in Huh 7 cells, 72 h incubation, luciferase enzyme activity; read-out: Inhibition of HCV genotype 1b
pEC50: −log10 of the molar value.
MEASURED_ATTRIBUTE: pEC50

COMPOUND: O=C(N[C@@H](C(=O)N1CCC[C@H]1COc1ccc(-c2ccc(-c3cnc([C@@H]4CCCN4C(=O)[C@H](NC(=O)N4CCOCC4)c4ccccc4)[nH]3)cc2)cc1)c1ccccc1)N1CCOCC1 [Compound 32]
MEASURED_ATTRIBUTE: pEC50
RESULT_VALUE: > 9.00
//
COMPOUND: C[C@@H](NC(=O)OC(C)(C)C)C(=O)N1CCC[C@H]1C(=O)Nc1ccc(-c2ccc(-c3cnc([C@@H]4CCCN4C(=O)[C@@H](C)NC(=O)OC(C)(C)C)[nH]3)cc2)cc1 [Compound 14]
MEASURED_ATTRIBUTE: pEC50
RESULT_VALUE: 8.00 to 9.00
//
COMPOUND: [2H]C([2H])([2H])C([2H])(C([2H])([2H])[2H])C([2H])(NC(=O)OC)C(=O)N1CCC[C@H]1c1ncc(-c2ccc(-c3ccc(NC(=O)[C@@H]4CCCN4C(=O)[C@@]([2H])(NC(=O)OC)C([2H])(C([2H])([2H])[2H])C([2H])([2H])[2H])cc3)cc2)[nH]1 (stereo partly shown) [Compound 77]
MEASURED_ATTRIBUTE: pEC50
RESULT_VALUE: > 9.00
//
COMPOUND: COC(=O)N[C@@H](C(=O)N1CCC[C@H]1CNC(=O)c1ccc(-c2ccc(-c3cnc([C@@H]4CCCN4C(=O)[C@H](NC(=O)OC)c4ccccc4)[nH]3)nc2)cc1)c1ccccc1 [Compound 91]
MEASURED_ATTRIBUTE: pEC50
RESULT_VALUE: > 9.00

Data provenance: patent US20120040977A1
